Measured pEC50 values are reported for all entries that follow.
# Tested on: Human immunodeficiency virus 1
# assay.details: Antiviral activity against HIV1 3B infected in human CEM cells assessed as inhibition of virus-induced cytopathicity after 4 days
# Type: functional, organism-based
# experimental.parameters: Human immunodeficiency virus 1, 3B, CCRF-CEM, 96 h
pEC50: −log10 of the molar value.

O=C(O)[C@H](Cc1ccc(O)cc1)Nc1nc(NCCN(CCNc2nc(N[C@@H](Cc3ccc(O)cc3)C(=O)O)nc(N[C@H](Cc3ccc(O)cc3)C(=O)O)n2)CCNc2nc(N[C@@H](Cc3ccc(O)cc3)C(=O)O)nc(N[C@H](Cc3ccc(O)cc3)C(=O)O)n2)nc(N[C@H](Cc2ccc(O)cc2)C(=O)O)n1 ... ≤ 3.60
O=C(O)[C@H](Cc1ccccc1)Nc1nc(NCCOCCOCCNc2nc(N[C@@H](Cc3ccccc3)C(=O)O)nc(N[C@H](Cc3ccccc3)C(=O)O)n2)nc(N[C@@H](Cc2ccccc2)C(=O)O)n1 ... ≤ 3.60

Which pEC50 is listed for CCc1c(CNc2nc(NCCc3c[nH]c4ccccc34)nc(N[C@@H](Cc3c[nH]c4ccccc34)C(=O)O)n2)c(CC)c(CNc2nc(NCCc3c[nH]c4ccccc34)nc(N[C@@H](Cc3c[nH]c4ccccc34)C(=O)O)n2)c(CC)c1CNc1nc(NCCc2c[nH]c3ccccc23)nc(N[C@@H](Cc2c[nH]c3ccccc23)C(=O)O)n1 ?
< 5.00
